Target: FLT3 (Homo sapiens)
Sequence (P36888 27-993): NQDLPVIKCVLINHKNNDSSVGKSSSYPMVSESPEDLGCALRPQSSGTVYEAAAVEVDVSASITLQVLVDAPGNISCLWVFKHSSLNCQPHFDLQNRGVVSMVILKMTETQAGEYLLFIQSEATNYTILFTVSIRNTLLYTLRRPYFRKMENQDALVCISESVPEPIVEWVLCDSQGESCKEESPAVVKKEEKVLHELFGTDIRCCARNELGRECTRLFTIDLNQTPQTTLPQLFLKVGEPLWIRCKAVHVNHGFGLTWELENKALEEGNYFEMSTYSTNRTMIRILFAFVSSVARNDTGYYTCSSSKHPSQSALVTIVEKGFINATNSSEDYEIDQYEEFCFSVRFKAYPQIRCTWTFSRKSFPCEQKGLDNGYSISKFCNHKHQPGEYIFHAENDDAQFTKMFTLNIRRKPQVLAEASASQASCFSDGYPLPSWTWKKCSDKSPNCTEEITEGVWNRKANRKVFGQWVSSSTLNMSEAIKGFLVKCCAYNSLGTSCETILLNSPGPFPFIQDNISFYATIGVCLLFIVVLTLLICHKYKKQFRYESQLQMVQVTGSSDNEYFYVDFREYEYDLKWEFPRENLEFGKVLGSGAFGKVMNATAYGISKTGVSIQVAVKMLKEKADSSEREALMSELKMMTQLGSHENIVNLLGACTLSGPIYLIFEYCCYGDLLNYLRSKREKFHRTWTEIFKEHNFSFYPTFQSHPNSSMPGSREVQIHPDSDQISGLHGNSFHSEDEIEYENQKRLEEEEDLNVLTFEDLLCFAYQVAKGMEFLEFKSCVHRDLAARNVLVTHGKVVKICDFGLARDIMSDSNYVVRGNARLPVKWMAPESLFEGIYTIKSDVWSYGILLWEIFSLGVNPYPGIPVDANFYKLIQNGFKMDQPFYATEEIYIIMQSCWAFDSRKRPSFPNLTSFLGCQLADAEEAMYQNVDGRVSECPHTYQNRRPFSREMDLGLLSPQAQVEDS
Counter-ions that a name gives are not always drawn.
result_type: IC50

>>> measured_value("CC(CC1COC1)Nc1ncc2c(-c3cnn(C4COC4)c3)cc([C@H]3CC[C@H](O)CC3)n2n1 (mixture of isomers)")
"1 to 10 µM"
>>> measured_value("CCCCC[C@H](C)Nc1ncc2c([C@H]3CC[C@@H](C(=O)N4CCOCC4)CC3)cc([C@H]3CC[C@H](O)CC3)n2n1")
"0.1 to 1 µM"
>>> measured_value("COC[C@H](C)Nc1ncc2c(C3=C[C@@H]4CC[C@H](C3)N4)cc([C@H]3CC[C@H](O)CC3)n2n1")
"1 to 10 µM"
>>> measured_value("COC[C@H](C)Nc1ncc2c(-c3ccc(CN4CCOCC4)nc3)cc([C@H]3CC[C@H](O)CC3)n2n1")
"0.1 to 1 µM"
>>> measured_value("COC[C@H](C)Nc1ncc2c(-c3ccc(CN4CCOCC4)cc3)cc([C@H]3CC[C@@H](O)CC3)n2n1")
"0.1 to 1 µM"
>>> measured_value("CNc1c(N[C@H]2CC[C@H](c3cc(-c4ccc(CN5CCOCC5)cc4)c4cnc(N[C@@H](C)COC)nn43)CC2)c(=O)c1=O")
"≤ 0.1 µM"
>>> measured_value("COC[C@H](C)Nc1ncc2c(-c3cnn(C(C)(C)C(=O)N4CC5(COC5)C4)c3)cc([C@H]3CC[C@H](O)CC3)n2n1")
"1 to 10 µM"
>>> measured_value("COC[C@H](C)Nc1ncc2c(-c3cnn(CC(=O)N[C@H]4CCOC4)c3)cc([C@H]3CC[C@H](O)CC3)n2n1")
"0.1 to 1 µM"
>>> measured_value("COC[C@H](C)Nc1ncc2c(-c3cnn(CC(C)(C)O)c3)cc([C@H]3CC[C@H](O)CC3)n2n1")
"1 to 10 µM"
>>> measured_value("COC[C@H](C)Nc1ncc2c(-c3csc(C(=O)N4CCOCC4)c3)cc([C@H]3CC[C@H](O)CC3)n2n1")
"0.1 to 1 µM"
>>> measured_value("[2H]C([2H])([2H])OCC(C)Nc1ncc2c(-c3ccnc(N4CCOCC4)c3)cc(C3CCC(O)CC3)n2n1 (stereo not drawn)")
"0.1 to 1 µM"
>>> measured_value("COC[C@H](C)Nc1ncc2c(-c3ccnc(O[C@H]4CCCNC4)c3)cc([C@H]3CC[C@H](O)CC3)n2n1")
"0.1 to 1 µM"
>>> measured_value("COCCC(C)Nc1ncc2c(-c3ccc(CN4CCCC4)cc3)cc(C3CCC(O)CC3)n2n1 (stereo not drawn)")
"≤ 0.1 µM"
>>> measured_value("CNOc1cc(-c2cc([C@H]3CC[C@H](O)CC3)n3nc(N[C@@H](C)COC)ncc23)ccn1")
"1 to 10 µM"
>>> measured_value("COC[C@H](C)Nc1ncc2c(C3=C[C@@H]4CC[C@H](C3)N4C)cc([C@H]3CC[C@H](O)CC3)n2n1")
"1 to 10 µM"
>>> measured_value("C[C@@H](CC(F)(F)F)Nc1ncc2c(C3=CCNCC3)cc([C@H]3CC[C@H](O)CC3)n2n1")
"≤ 0.1 µM"
>>> measured_value("COCCn1cc(-c2cc([C@H]3CC[C@H](O)CC3)n3nc(N[C@@H](C)COC)ncc23)cn1")
"0.1 to 1 µM"
>>> measured_value("COC[C@H](C)Nc1ncc2c(-c3cccc(CN4CCOCC4)c3)cc([C@H]3CC[C@H](O)CC3)n2n1")
"0.1 to 1 µM"
>>> measured_value("COC[C@H](C)Nc1ncc2c(-c3cnn(C4COC4)c3)cc([C@H]3CC[C@](C)(O)CC3)n2n1 (single isomer, unassigned)")
"0.1 to 1 µM"
>>> measured_value("COC[C@H](C)Nc1ncc2c(-c3ccc(CN4CCN(C)CC4)cc3)cc([C@H]3CC[C@@H](O)CC3)n2n1")
"0.1 to 1 µM"
>>> measured_value("COC[C@H](C)Nc1ncc2c(-c3cnn(C4COC4)c3)cc(C3CCC(=O)NC3)n2n1 (stereo partly drawn)")
"1 to 10 µM"
>>> measured_value("CCCCCC(C)Nc1ncc2c(Nc3ccc(F)cc3)cc(C3CCC(O)CC3)n2n1 (stereo not drawn) [Compound 106, hydrochloride]")
"> 10 µM"
>>> measured_value("COC[C@H](C)Nc1ncc2c(-c3ccnc(O[C@@H]4CCN(C)C4)c3)cc([C@H]3CC[C@H](O)CC3)n2n1")
"0.1 to 1 µM"
>>> measured_value("CCCCCC(C)Nc1ncc2c(C3=CCC(C(=O)N4CCOCC4)CC3)cc(C3CCC(O)CC3)n2n1 (mixture of isomers)")
"0.1 to 1 µM"
>>> measured_value("COC[C@H](C)Nc1ncc2c(-c3ccc(-c4nn[nH]n4)cc3)cc([C@H]3CC[C@H](O)CC3)n2n1")
"1 to 10 µM"
>>> measured_value("CCCCC[C@H](C)Nc1ncc2c(N3CCC(C(=O)O)CC3)cc([C@H]3CC[C@H](O)CC3)n2n1")
"1 to 10 µM"
>>> measured_value("CCCCC[C@H](C)Nc1ncc2c([C@H]3CC[C@@H](C(=O)N4CCN(C)CC4)CC3)cc([C@H]3CC[C@H](O)CC3)n2n1")
"0.1 to 1 µM"
